Ki values for Sodium-dependent noradrenaline transporter (Homo sapiens, UniProt P23975) compiled from several publications are listed below.
OBSERVED_PROPERTY: Ki (nM)

a: CC(C)CN(Cc1cccc(C#N)c1)C1CCNCC1
b: CC(C)CN(Cc1ccc(Cl)cc1Cl)C1CCNCC1
c: CC(C)CN(C(=O)c1ccc(Cl)c(Cl)c1)[C@H]1CCNC1
d: COc1cc(Cl)ccc1O[C@@H](c1ccc(F)cc1)[C@@H]1CNCCO1
e: Fc1cccc(F)c1Oc1cccc(F)c1OC1CNC1
Descending sort on Ki required. Returns: the labels arranged in the requested order. a, e, c, d, b
(a: 690 nM, e: 482 nM, c: 50 nM, d: 29 nM, b: 2 nM)

* * *

Ki values for Sodium-dependent noradrenaline transporter (Homo sapiens) compiled from several publications are listed below.
OBSERVED_PROPERTY: Ki (nM)

| MOLECULE | VALUE_UNIT | Ki |
| --- | --- | --- |
| Clc1cccc(O[C@@H](c2ccccc2)[C@@H]2CNCCO2)c1Cl | nM | 17 |
| O[C@](Cc1ccccc1SC(F)(F)F)(c1ccccc1)[C@@H]1CNCCO1 | nM | 54.4 |
| COC(=O)c1ccccc1O[C@@H](c1ccccc1)[C@@H]1CNCCO1 | nM | 1.32 |

A: COc1cc(F)ccc1O[C@H](c1ccccc1)[C@H]1CNCCO1
B: CNCCC(Oc1cccc2ccccc12)c1cccc(C)c1 (stereo unspecified)
Hi! Which is lower in terms of Ki, the first one A or the second one B ? Reply with the label of the item you choose. B
(B: 40 nM, A: 610 nM)

* * *

pKi values for Sodium-dependent noradrenaline transporter (Homo sapiens, UniProt P23975) compiled from several publications are listed below.
pKi: −log10 of the molar value.
OBSERVED_PROPERTY: pKi

A selection of reference data follows.
| COMPOUND | SYSTEM_TESTED | pKi |
| --- | --- | --- |
| N#CCCCN(Cc1ccccc1C(F)(F)F)C1CCNCC1 | Sodium-dependent noradrenaline transporter (Homo sapiens, UniProt P23975) | 7.68 |
| Cc1cc(Oc2ccccc2C(C)C)c(CN(C)C)cn1 | Sodium-dependent noradrenaline transporter (Homo sapiens, UniProt P23975) | 7.89 |
| Fc1ccc(CN(CC2CC2)C2CCNCC2)c(C(F)(F)F)c1 | Sodium-dependent noradrenaline transporter (Homo sapiens, UniProt P23975) | 8.19 |
| CCCc1ccccc1Oc1cc(C)ncc1CNC | Sodium-dependent noradrenaline transporter (Homo sapiens, UniProt P23975) | 6.36 |

a: COc1ccc(C(CN2CCNCC2)C2(O)CCCCC2)cc1 (stereo unspecified)
b: Fc1cccc(O[C@H](c2ccccc2)[C@H]2CNCCO2)c1F
Hi! Which is lower in terms of pKi, the first one a or the second one b ? Reply with the label of the item you choose. a
(a: 6.28, b: 6.89)

* * *

Ki values for Sodium-dependent noradrenaline transporter (Homo sapiens, UniProt P23975) compiled from several publications are listed below.
OBSERVED_PROPERTY: Ki (nM)

| COMPOUND | OBSERVED_PROPERTY | VALUE_REPORTED |
| --- | --- | --- |
| COc1cc(C(F)(F)F)ccc1O[C@@H](c1ccccc1)[C@@H]1CNCCO1 | Ki | 160 |

1: CN(C)Cc1cc(O)ccc1Sc1ccccc1N
2: Clc1ccc(Oc2ncccc2C2CCNCC2)c(Cl)c1
3: Fc1cccc(O[C@@H](c2ccccc2)[C@@H]2CNCCO2)c1F
4: COc1cccc(C(CN2CCNCC2)C2(O)CCCCC2)c1 (stereo unspecified)
rank_up(items): orders items by reported Ki in ascending numerical order. Returns: the labels arranged in the requested order. 3, 1, 2, 4
(3: 10 nM, 1: 33 nM, 2: 413 nM, 4: 745 nM)

I: OC1(C(CN2CCNCC2)c2cccc(F)c2)CCCCC1 (stereo unspecified)
II: COc1ccc(F)cc1CN(CC(C)C)C1CCNCC1
Hi! Which is lower in terms of Ki, the first one I or the second one II ? Reply with the label of the item you choose. II
